Reference source: patent US20230331803A1

Below, each of the substances is paired with its reported Tmax value.
- PROCEDURE SUMMARY: Pharmacokinetic studies in Beagle dogs after oral administration of SNAC-based tablets
- Type: in vivo
- CONDITION CONTEXT: male, Beagle, dog, in vivo, po, Tmax (hr)
Starred links: 1 amine or outer side, 2 acyl side, 3 side chain; linkers in the order of their positions; H or OH if unused. Non-standard residues stand in square brackets, D forms with d. Groups on a side chain read outwards from the residue. *: point of attachment. C20 diacid = O=C(O)CCCCCCCCCCCCCCCCCCC(=O)*; C18 diacid = O=C(O)CCCCCCCCCCCCCCCCC(=O)*; C16 diacid = O=C(O)CCCCCCCCCCCCCCC(=O)*; γGlu = O=C(O)[C@H](CCC(=O)[*:2])N[*:1]; εLys = N[C@@H](CCCCN[*:1])C(=O)[*:2]; Trx = NC[C@H]1CC[C@H](C(=O)O)CC1; AEEA = NCCOCCOCC(=O)O; Aib = CC(C)(N)C(=O)O
EXPERIMENTAL READOUT: Tmax (h)

>>> observed_value("H-H[Aib]EGTFTSDVSK([AEEA-AEEA-γGlu-C16 diacid])YLEEQAARK([AEEA-AEEA-γGlu-C16 diacid])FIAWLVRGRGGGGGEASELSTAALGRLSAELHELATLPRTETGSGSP-NH2 [Compound 0516]")
2
>>> observed_value("H-H[Aib]EGTFTSDK([AEEA-AEEA-γGlu-C16 diacid])SSYLEEQAAREFIAWLVRGRGGGGGASELSTAALGRLSK([AEEA-AEEA-γGlu-C16 diacid])ELHELATLPRTETGSGSP-NH2 [Compound 0292]")
2
>>> observed_value("H-H[Aib]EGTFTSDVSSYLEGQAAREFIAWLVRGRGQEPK([AEEA-AEEA-γGlu-C18 diacid])GQAPEASELSTAALGRLSAELHELATLPRTETGSGSP-NH2 [Compound 0084]")
1.5
>>> observed_value("H-H[Aib]EGTFTSDVSSYLEEQAARK([εLys-AEEA-AEEA-γGlu-Trx-C20 diacid])FIEWLVRGRGEASELSTAALGRLSAELHELATLPRTETGSGSP-NH2 [Compound 0439]")
2
>>> observed_value("H-H[Aib]EGTFTSDK([AEEA-AEEA-γGlu-C16 diacid])SSYLEEQAAREFIAWLVRGRGGGGGEASELSTAALGRLSAELHK([AEEA-AEEA-γGlu-C16 diacid])LATLPRTETGSGSP-NH2 [Compound 0259]")
1.5

###

Below, each of the substances is paired with its reported AUC/D value.
- PROCEDURE SUMMARY: Pharmacokinetic studies in Beagle dogs after oral administration of SNAC-based tablets
- Format: in vivo
- CONDITION CONTEXT: dogs, oral administration (tablet)
Starred links: 1 amine or outer side, 2 acyl side, 3 side chain; linkers in the order of their positions; H or OH if unused. Non-standard residues stand in square brackets, D forms with d. Groups on a side chain read outwards from the residue. *: point of attachment. Decanoyl(10-(4-HOOC-PhO)) = O=C(O)c1ccc(OCCCCCCCCCC(=O)*)cc1; Decanoyl(10-O(3-COOH-Ph)) = O=C(O)c1cccc(OCCCCCCCCCC(=O)*)c1; γGlu = O=C(O)[C@H](CCC(=O)[*:2])N[*:1]; AEEA = NCCOCCOCC(=O)O; Aib = CC(C)(N)C(=O)O
EXPERIMENTAL READOUT: AUC/D (kg·h/L)

>>> observed_value("H-HWEGTFTSDVSSYLEEQAAREFIEWLVRGK([AEEA-AEEA-γGlu-Decanoyl(10-(4-HOOC-PhO))])GEGGGGGASELSTAALGRLSK([AEEA-AEEA-γGlu-Decanoyl(10-(4-HOOC-PhO))])ELHELATLPRTETGSGSP-NH2 [Compound 0233]")
8.43
>>> observed_value("H-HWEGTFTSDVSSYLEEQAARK([AEEA-AEEA-γGlu-Decanoyl(10-(4-HOOC-PhO))])FIEWLVRGRGEGGGGGASELSTAALGRLSAELHELK([AEEA-AEEA-γGlu-Decanoyl(10-(4-HOOC-PhO))])TLPRTETGSGSP-NH2 [Compound 0232]")
2.00
>>> observed_value("H-H[Aib]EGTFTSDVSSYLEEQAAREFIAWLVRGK([AEEA-AEEA-γGlu-Decanoyl(10-O(3-COOH-Ph))])K([AEEA-AEEA-γGlu-Decanoyl(10-O(3-COOH-Ph))])GGGGASELSTAALGRLSAELHELATLPRTETGSGSP-NH2 [Compound 0235]")
3.3
